- Test system: M. abscessus ATCC 19977
- Experimental Details: Broth microdilution MIC of carbapenems with and without β-lactamase inhibitors, reference strain
- Type: cell-based, Mycobacterium abscessus
- Conditions Used: 7H9 broth, tazobactam at fixed 4 μg/mL
Would you kindly list Minimum inhibitory concentration, 7H9 + tazobactam for each of these compounds?

Given the compound `C[C@@H](O)[C@H]1C(=O)N2C(C(=O)O)=C(S[C@@H]3CN[C@H](C(=O)N(C)C)C3)[C@H](C)[C@H]12` , what is its reported Minimum inhibitory concentration, 7H9 + tazobactam?
8 to 16 µg/mL

Entry to check: `C[C@@H](O)[C@H]1C(=O)N2C(C(=O)O)=C(S[C@@H]3CN[C@H](C(=O)Nc4cccc(C(=O)O)c4)C3)[C@H](C)[C@H]12`
32 to 64 µg/mL

Next record, please: `C[C@@H](O)[C@H]1C(=O)N2C(C(=O)O)=C([C@H]3CCCO3)S[C@H]12`
32 to 64 µg/mL

Again, but for `C[C@@H](O)[C@H]1C(=O)N2C(C(=O)O)=C(SC3CN(C4=NCCS4)C3)[C@H](C)[C@H]12`
>64 µg/mL

Next record, please: `CC(=N)N1CC[C@H](SC2=C(C(=O)O)N3C(=O)[C@H]([C@@H](C)O)[C@H]3C2)C1`
32 to 64 µg/mL

Entry to check: `C[C@@H](O)[C@H]1C(=O)N2C(C(=O)O)=C(SCCN=CN)C[C@H]12`
2 to 4 µg/mL

Same lookup for `C[C@@H](O)[C@H]1C(=O)N2C(C(=O)O)=C(S[C@@H]3CN[C@H](CNS(N)(=O)=O)C3)[C@H](C)[C@H]12` , please.
8 to 16 µg/mL

And the next one, C[C@@H](O)[C@H]1C(=O)N2C(C(=O)[O-])=C(SC3Cn4cnc[n+]4C3)[C@H](C)[C@H]12 (some centres unmarked) ?
8 to 16 µg/mL

====

Assignment: determine reported MIC for the given compounds.
- System: M. abscessus ATCC 19977
- Experimental Details: Broth microdilution MIC of carbapenems with and without β-lactamase inhibitors, reference strain
- Type: cell-based, Mycobacterium abscessus
- Conditions Used: Mycobacteroides abscessus, ATCC19977; 7H9 broth, drug alone; read-out: Minimum inhibitory concentration, 7H9 broth

Which measured MIC value corresponds to `C[C@@H](O)[C@H]1C(=O)N2C(C(=O)O)=C(S[C@@H]3CN[C@H](CNS(N)(=O)=O)C3)[C@H](C)[C@H]12` ?
8 to 16 µg/mL

Would you kindly repeat that for `C[C@@H](O)[C@H]1C(=O)N2C(C(=O)O)=C(S[C@@H]3CN[C@H](C(=O)Nc4cccc(C(=O)O)c4)C3)[C@H](C)[C@H]12` ?
64 to 128 µg/mL

And `C[C@@H](O)[C@H]1C(=O)N2C(C(=O)O)=C(SCCN=CN)C[C@H]12` ?
4 to 8 µg/mL

Next up: `C[C@@H](O)[C@H]1C(=O)N2C(C(=O)O)=C([C@H]3CCCO3)S[C@H]12`
32 to 64 µg/mL

====

- System: M. abscessus ATCC 19977
- Experimental Details: Broth microdilution MIC of carbapenems with and without β-lactamase inhibitors, reference strain
- Format: cell-based, Mycobacterium abscessus
- Conditions Used: Mycobacteroides abscessus, ATCC19977; 7H9 broth, drug alone; read-out: Minimum inhibitory concentration, 7H9 broth
Quantity Name: MIC

Which MIC value belongs to `C[C@@H](O)[C@H]1C(=O)N2C(C(=O)O)=C(S[C@@H]3CN[C@H](C(=O)N(C)C)C3)[C@H](C)[C@H]12` ?
8 to 16 µg/mL

Also `NC(=O)[C@@H]1CC[C@@H]2CN1C(=O)N2OS(=O)(=O)O` ?
> 256 µg/mL

// query: `C[C@@H](O)[C@H]1C(=O)N2C(C(=O)O)=C(SC3CN(C4=NCCS4)C3)[C@H](C)[C@H]12`
128 to 256 µg/mL

Lookup `CC(=N)N1CC[C@H](SC2=C(C(=O)O)N3C(=O)[C@H]([C@@H](C)O)[C@H]3C2)C1`
64 to 128 µg/mL

Record: `C[C@]1(Cn2ccnn2)[C@H](C(=O)O)N2C(=O)C[C@H]2S1(=O)=O`
> 64 µg/mL

Okay, and C[C@@H](O)[C@H]1C(=O)N2C(C(=O)[O-])=C(SC3Cn4cnc[n+]4C3)[C@H](C)[C@H]12 (stereo partly drawn) ?
8 to 16 µg/mL
